# System: DU-145 prostate
# experimentNotes: NCI tumour cell line growth inhibition, 48 h; in the data active means GI50 below about 0.43 µM; inactive means the rest
Entry note: the call must match one of TRUE for active, FALSE for inactive

Could you check what this test reported for `C=C1C(=O)O[C@H]2[C@H]1CC(=O)/C(C)=C\CC[C@@]1(C)O[C@@H]21` ?
FALSE

Check `COc1ccc2c(c1)C(=O)c1c-2n(CCCCl)c(=O)c2cc(N(C)C)ccc12` too.
FALSE

----------
# Tested on: OVCAR-8 ovarian
# experimentNotes: NCI tumour cell line growth inhibition, 48 h; in the data active = GI50 below about 0.43 µM; inactive = the rest
Entry note: the call must match one of yes = active, no = inactive

>>> assignedcategory("CCOC(=O)c1cnc2c(cnn2CC)c1NN=C(C)C")
"no"
>>> assignedcategory("C1C[OH+]CC[OH+]CC[OH+]CC[OH+]CC[OH+]CC[OH+]1.[Cl-].[Ta+5]")
"no"
>>> assignedcategory("C[C@@]12CCC[C@@](C)(C(=O)O)C1CC[C@@]13CC(=O)[C@@](CO)(CCC12)C3 (stereo partly specified)")
"no"
>>> assignedcategory("COc1ccc(-c2[nH]ncc2-c2cc(OC)c(OC)c(OC)c2)cc1")
"yes"
>>> assignedcategory("CN(C)CCCC(=O)Nc1ccc(Cn2nnc3c2C(=O)c2nnn(Cc4ccc(NC(=O)CCCN(C)C)cc4)c2C3=O)cc1")
"no"
>>> assignedcategory("C=C1CO[C@@H]2C[C@@H]1CCC1(C)OC1CC/C(C)=C/CC[C@@]2(C)O (stereo partly specified)")
"no"
>>> assignedcategory("NCC(=O)CCC(=O)O")
"no"
>>> assignedcategory("Clc1ccc(-c2cn(-c3ccccc3)c(-c3ccccc3)n2)c(Cl)c1")
"no"
>>> assignedcategory("COc1ccc(-c2c(C#N)c(N)nc3c2CCCc2ccc(F)cc2-3)cc1OC")
"yes"
>>> assignedcategory("CC(C)[C@@H](CS(=O)(=O)C(C)C)N1C(=O)[C@@](C)(CC(=O)O)C[C@H](c2cccc(Cl)c2)[C@H]1c1ccc(Cl)cc1")
"no"

Could you check what this test reported for CCC(C)CC(CC)NCCN1CCN(C(CC)CC(C)CC)C1=S (stereo unspecified) ?
no

Check `C/C(=C/c1c(C)[nH]c(=O)[nH]c1=O)C(=O)O` too.
no

Check C#CC#CC#CC#CC#CC#CC#CC#CCC1OC[C@H](COC(=O)O[C@@H](C(=O)O[C@H]2C[C@@]3(O)[C@@H](OC(=O)c4ccccc4)[C@@H]4[C@]5(OC(C)=O)CO[C@@H]5C[C@H](O)[C@@]4(C)C(=O)[C@H](OC(C)=O)C(=C2C)C3(C)C)[C@@H](NC(=O)c2ccccc2)c2ccccc2)O1 (stereo partly specified) too.
no

----------
# Test system: OVCAR-3 ovarian
# experimentNotes: NCI tumour cell line growth inhibition, 48 h; in the data active means GI50 below about 0.43 µM; inactive means the rest
Entry note: the call must match one of active, inactive

Worked examples, 3 molecules total:
>>> assignedcategory("C#CC#CC#CC#CC#CC#CC#CC#CCC1OC[C@H](COC(=O)O[C@@H](C(=O)O[C@H]2C[C@@]3(O)[C@@H](OC(=O)c4ccccc4)[C@@H]4[C@]5(OC(C)=O)CO[C@@H]5C[C@H](O)[C@@]4(C)C(=O)[C@H](OC(C)=O)C(=C2C)C3(C)C)[C@@H](NC(=O)c2ccccc2)c2ccccc2)O1 (some centres not stated)")
"active"
>>> assignedcategory("C[C@@]12CCC[C@@](C)(C(=O)O)C1CC[C@@]13CC(=O)[C@@](CO)(CCC12)C3 (some centres not stated)")
"inactive"
>>> assignedcategory("CC1(C)CC[C@]2(C(=O)O)CC[C@]3(C)[C@H](CC[C@@H]4[C@@]5(C)CCC(=O)C(C)(C)[C@@H]5CC[C@]43C)[C@H]2[C@H]1OC(=O)C(F)(F)F")
"inactive"

Could you check what this test reported for CCCCNCC(O)c1cc(-c2ccc(C(F)(F)F)cc2)nc(-c2ccc(C(F)(F)F)cc2)c1 (configuration not stated) ?
inactive

Check `O=C1C(=O)c2c(nc3ncccn23)-c2ccccc21` too.
active

Check `Oc1ccc(-c2nc3ccc4[nH]ncc4c3c3c2CCCC3)c2cccnc12` too.
inactive

Check CCC(C)CC(CC)NCCN1CCN(C(CC)CC(C)CC)C1=S (configuration not stated) too.
inactive
